- System: PC-3 prostate
- EXPERIMENT_NOTES: NCI tumour cell line growth inhibition, 48 h
Examples of compounds with documented TGI follow.
MEASUREMENT_NAME: TGI

[[record]]
compound = "COc1ccc2c3c1OC1c4[nH]c5ccccc5c4CC4(O)C(C2)N(C)CCC314 (stereo not given)"
target_or_test_system = "PC-3 prostate"
result = "> 100 µM"

[[record]]
compound = "COc1cccc(NC(=O)CC(=O)N2N=C(C)C(N=Nc3ccc(S(=O)(=O)c4ccc(N=NC5C(=O)N(C(=O)CC(=O)Nc6cccc(OC)c6)N=C5C)cc4)cc3)C2=O)c1 (stereo not given)"
target_or_test_system = "PC-3 prostate"
result = "> 100 µM"

[[record]]
compound = "COC(=O)/N=[N+](\\[O-])C(c1ccc(OC)cc1)C1CCCCC1 (stereo not given)"
target_or_test_system = "PC-3 prostate"
result = "22.5 µM"

[[record]]
compound = "CN(CCc1ccc(N)cc1)[C@H]1CCCC[C@H]1N1CCCC1"
target_or_test_system = "PC-3 prostate"
result = "> 100 µM"

[[record]]
compound = "COc1cc[nH]c1/C=C1\\C(=O)Nc2ccc(F)c(I)c21"
target_or_test_system = "PC-3 prostate"
result = "> 25 µM"

[[record]]
compound = "C=C(C)C(=O)O[C@H]1[C@H]2[C@H](OC(=O)[C@H]2C)[C@H](O)[C@@H](C)[C@@H]2C=CC(=O)[C@]21C"
target_or_test_system = "PC-3 prostate"
result = "18.5 µM"

[[record]]
compound = "Brc1ccccc1-c1ncc(-c2ccccc2)o1"
target_or_test_system = "PC-3 prostate"
result = "> 100 µM"

[[record]]
compound = "c1cc2c(c(-c3c4ccccc4nc4ccccc34)c1)CC1(CC2)OCCO1"
target_or_test_system = "PC-3 prostate"
result = "> 100 µM"

[[record]]
compound = "CCCCOC(=O)C(O)Cc1ccoc1 (stereo not given)"
target_or_test_system = "PC-3 prostate"
result = "> 100 µM"

[[record]]
compound = "COc1ccc(N=C(Nc2ccc(OC)cc2)C(=Nc2ccc(OC)cc2)Nc2ccc(OC)cc2)cc1"
target_or_test_system = "PC-3 prostate"
result = "> 100 µM"

[[record]]
compound = "Cc1cc2c3ccccc3n(C)c2c2c1C(=O)C=CC2=O"
target_or_test_system = "PC-3 prostate"
result = "21.5 µM"

[[record]]
compound = "NC(C(=O)[O-])C(=O)[O-].NC1CCCCC1N.[Pt+4]"
target_or_test_system = "PC-3 prostate"
result = "> 100 µM"

[[record]]
compound = "COC(=O)CCC12CCC(O1)c1ccccc12 (stereo not given)"
target_or_test_system = "PC-3 prostate"
result = "> 100 µM"

[[record]]
compound = "O=C1/C(=C/c2ccc(O)cc2)COc2ccc(-c3ccccc3)cc21"
target_or_test_system = "PC-3 prostate"
result = "> 63.9 µM"

[[record]]
compound = "C(=C\\C(SCc1ccccc1)SCc1ccccc1)/c1ccccc1"
target_or_test_system = "PC-3 prostate"
result = "> 10 µM"

[[record]]
compound = "CC12CCC(=O)C=C1CCC1C2C(O)CC2(C)C(c3csc(N)n3)CCC12 (stereo not given)"
target_or_test_system = "PC-3 prostate"
result = "> 100 µM"

[[record]]
compound = "COC(=O)CNC(=O)[C@@H](OC)[C@@H]1Cc2cc3cc(OC4CC(OC5CC(O)C(O)C(C)O5)C(O)C(C)O4)c(C)c(O)c3c(O)c2C(=O)[C@H]1OC1CC(OC2CC(OC3CC(C)(O)C(O)C(C)O3)C(O)C(C)O2)C(O)C(C)O1 (stereo not given in full)"
target_or_test_system = "PC-3 prostate"
result = "> 50 µM"

[[record]]
compound = "NCc1ccc(C(=O)O)cc1"
target_or_test_system = "PC-3 prostate"
result = "> 100 µM"

[[record]]
compound = "CCCCN(Cc1ccc(F)cc1)c1ccc(CO)c(Cl)c1"
target_or_test_system = "PC-3 prostate"
result = "28.4 µM"

[[record]]
compound = "CCC(CCCC[C@@H]1CC[C@H]2CC(=O)C[C@@H]12)OC (stereo not given in full)"
target_or_test_system = "PC-3 prostate"
result = "> 100 µM"


---

- Tested on: SN12C renal
- EXPERIMENT_NOTES: NCI tumour cell line growth inhibition, 48 h
MEASUREMENT_NAME: TGI (µM)

[[record]]
smiles_string = "Nc1nc(Cl)cc(Nc2cc(Cl)cc(Cl)c2)n1"
measurement_name = "TGI"
censoring_sign = "="
result = 40.7

[[record]]
smiles_string = "CC[C@H](CC#N)OC(=O)N[C@@H](C)c1cccc(NC(=O)Nc2ccc(-c3cnco3)c(OC)c2)c1"
measurement_name = "TGI"
censoring_sign = "="
result = 79.3

[[record]]
smiles_string = "c1ccc(-c2nn(-c3ccccc3)[n+](-c3ccccc3)n2)cc1"
measurement_name = "TGI"
censoring_sign = ">"
result = 100

[[record]]
smiles_string = "CC(=O)Nc1ccc2c(c1)oc(=O)c1cc(NC(C)=O)ccc12"
measurement_name = "TGI"
censoring_sign = ">"
result = 100

[[record]]
smiles_string = "CC(C)CCn1c(=O)c2c(=O)[nH][nH]c2c2ccccc21"
measurement_name = "TGI"
censoring_sign = ">"
result = 100


---

Examples of compounds with documented TGI follow.
- Test system: HT29 colon
- EXPERIMENT_NOTES: NCI tumour cell line growth inhibition, 48 h
MEASUREMENT_NAME: TGI (µM)

[[record]]
compound = "CCCCCCCCCCCCCC(=O)CBr"
measurement_name = "TGI"
censoring_sign = "="
result = 30.5

[[record]]
compound = "COc1ccc2c3c(c(=O)n(C)c2c1OC)C=CC(C)(C)O3"
measurement_name = "TGI"
censoring_sign = "="
result = 72.7

[[record]]
compound = "Cn1ccnc1C(=O)/C=C/c1ccc(CC(=O)Nc2ccccc2)cc1"
measurement_name = "TGI"
censoring_sign = "="
result = 6.82

[[record]]
compound = "CCOC(=O)C(NC(=O)Nc1ccc(Cl)c(Cl)c1)C(F)(F)F (centres undefined)"
measurement_name = "TGI"
censoring_sign = ">"
result = 100

[[record]]
compound = "Cn1c(-c2ccc(/C=N\\N3CCN(/N=C/c4ccc(-c5c[n+]6ccccc6n5C)cc4)CC3)cc2)c[n+]2ccccc12"
measurement_name = "TGI"
censoring_sign = ">"
result = 100

[[record]]
compound = "CCC(=O)O[C@H]1CC[C@H]2[C@@H]3CCC4=C/C(=N/NC(=O)c5cccc6c(=O)c7ccccc7[nH]c56)CC[C@]4(C)[C@H]3CC[C@]12C"
measurement_name = "TGI"
censoring_sign = ">"
result = 25

[[record]]
compound = "COc1ccc(CC2NC(=O)/C=C/CC(C(C)C3OC3c3ccccc3)OC(=O)C(CC(C)C)OC(=O)C(C)CNC2=O)cc1Cl (centres undefined)"
measurement_name = "TGI"
censoring_sign = "="
result = 0.000108

[[record]]
compound = "COc1ccc(-c2cc(N3CCN(c4ccccc4)CC3)c(C#N)c(=O)o2)cc1"
measurement_name = "TGI"
censoring_sign = ">"
result = 100

[[record]]
compound = "Cc1nnc2n1-c1ccccc1C(=S)N1CSCC21 (centres undefined)"
measurement_name = "TGI"
censoring_sign = ">"
result = 100


---

- Test system: SF-295 CNS
- EXPERIMENT_NOTES: NCI tumour cell line growth inhibition, 48 h
MEASUREMENT_NAME: TGI

[[record]]
compound = "COC(=O)CNC(=O)[C@@H](OC)[C@@H]1Cc2cc3cc(OC4CC(OC5CC(O)C(O)C(C)O5)C(O)C(C)O4)c(C)c(O)c3c(O)c2C(=O)[C@H]1OC1CC(OC2CC(OC3CC(C)(O)C(O)C(C)O3)C(O)C(C)O2)C(O)C(C)O1 (stereo not given in full)"
target_or_test_system = "SF-295 CNS"
result = "> 50 µM"

[[record]]
compound = "O=C1C(Cl)=C(Nc2cccc(O)c2)C(=O)N1c1cc(Cl)c(Cl)cc1Cl"
target_or_test_system = "SF-295 CNS"
result = "53.2 µM"

[[record]]
compound = "N[C@H](C(=O)O)[C@H](Cl)CC(=O)O"
target_or_test_system = "SF-295 CNS"
result = "> 100 µM"

[[record]]
compound = "CCN(Cc1ccccc1OC)c1ccc(CO)c(Cl)c1"
target_or_test_system = "SF-295 CNS"
result = "15.3 µM"

[[record]]
compound = "CCCCN(Cc1ccc(F)cc1)c1ccc(CO)c(Cl)c1"
target_or_test_system = "SF-295 CNS"
result = "17.2 µM"

[[record]]
compound = "Cc1ccc2c(n1)C(=O)c1ccccc1C2=O"
target_or_test_system = "SF-295 CNS"
result = "> 83.3 µM"

[[record]]
compound = "CCN(CC)C(=S)SS(=O)(=O)c1ccc([N+](=O)[O-])cc1"
target_or_test_system = "SF-295 CNS"
result = "> 100 µM"

[[record]]
compound = "Cn1c2ccccc2c(=NNc2ccc(C(=O)O)cc2)c2ccccc21"
target_or_test_system = "SF-295 CNS"
result = "78.4 µM"

[[record]]
compound = "CC(C)NC(=O)OCCS(=O)c1c(Cl)c(Cl)nn1C (stereo not given)"
target_or_test_system = "SF-295 CNS"
result = "> 100 µM"

[[record]]
compound = "C[C@H]1[C@H](C)CC[C@]2(C(=O)O)CC[C@]3(C)C(=CC[C@@H]4[C@@]5(C)C/C(=C/c6cccnc6)[C@H](O)C(C)(C)[C@@H]5CC[C@]43C)[C@H]12"
target_or_test_system = "SF-295 CNS"
result = "25.8 µM"

[[record]]
compound = "COc1nc2nccc-2c2occn12"
target_or_test_system = "SF-295 CNS"
result = "> 100 µM"

[[record]]
compound = "COc1ccc(NC(=O)/C(CC2=Nc3ccc([N+](=O)[O-])cc3NC2O)=N\\NC(=O)C[N+](C)(C)C)c(OC)c1 (stereo not given)"
target_or_test_system = "SF-295 CNS"
result = "> 100 µM"

[[record]]
compound = "Cc1cn(Cc2ccccc2CCl)c(=O)[nH]c1=O"
target_or_test_system = "SF-295 CNS"
result = "30.4 µM"

[[record]]
compound = "O=C1/C(=C/c2ccc(O)cc2)COc2ccc(-c3ccccc3)cc21"
target_or_test_system = "SF-295 CNS"
result = "24.7 µM"

[[record]]
compound = "C=CC[C@H](C)CCC(=O)N1[C@H]2CC3CC[C@@]2(CS1(=O)=O)C3(C)C"
target_or_test_system = "SF-295 CNS"
result = "> 100 µM"

[[record]]
compound = "CN(C)c1ccc(N=Nc2ccccn2)cc1"
target_or_test_system = "SF-295 CNS"
result = "> 100 µM"

[[record]]
compound = "CN(C)CCOc1ccc2c(c1)C/C(=C/c1ncc([N+](=O)[O-])n1C)C2=O"
target_or_test_system = "SF-295 CNS"
result = "20.3 µM"

[[record]]
compound = "CC12Cc3cc4c(cc3C1(c1ccc([N+](=O)[O-])cc1)OCCO2)OCO4 (stereo not given)"
target_or_test_system = "SF-295 CNS"
result = "57.7 µM"

[[record]]
compound = "COc1ccc2oc3cccc(NCCN(C)C)c3c(=O)c2c1"
target_or_test_system = "SF-295 CNS"
result = "29.9 µM"

[[record]]
compound = "COc1cc(Cn2c3c(c4c(C(=O)NCCN(C)C)c(O)ccc42)C(=O)c2ccccc2C3=O)cc(OC)c1"
target_or_test_system = "SF-295 CNS"
result = "3.45 µM"

